// data source = patent US4228187A

tested on: BaCl2; experiment: Antispasmodic activity, BaCl2
Record form. Attribute: Antispasmodic activity CE 100, BaCl2. Fill in for each entry.
# unit: μ g γ 60 ml | format: bare number

Query: Give Antispasmodic activity CE 100, BaCl2 (BaCl2) of the following molecule: CC(C)CSc1ccc(C(O)C(C)NC(C)(C)C)cc1 (stereo not shown)
Response: 500

Query: Give Antispasmodic activity CE 100, BaCl2 (BaCl2) of the following molecule: CCC(C)NC(C)C(O)c1ccc(SC(C)C)cc1 (stereo not shown)
Response: 500

Query: Give Antispasmodic activity CE 100, BaCl2 (BaCl2) of the following molecule: CCC(C(O)c1ccc(SC2CCCCC2)cc1)N1CCCCC1 (stereo not shown)
Response: 200

Query: Give Antispasmodic activity CE 100, BaCl2 (BaCl2) of the following molecule: CCCCCCCCNC(C)C(O)c1ccc(SC)cc1 (stereo not shown)
Response: 100

Query: Give Antispasmodic activity CE 100, BaCl2 (BaCl2) of the following molecule: CCCCNC(CC)C(O)c1ccc(SC)cc1 (stereo not shown)
Response: 1000

Query: Give Antispasmodic activity CE 100, BaCl2 (BaCl2) of the following molecule: CCC(C)NC(C)C(O)c1ccc(SCC(C)C)cc1 (stereo not shown)
Response: 500

Query: Give Antispasmodic activity CE 100, BaCl2 (BaCl2) of the following molecule: CCCCCCCCNC(C)C(O)c1ccc(SCC(C)C)cc1 (stereo not shown)
Response: 200

Query: Give Antispasmodic activity CE 100, BaCl2 (BaCl2) of the following molecule: CCCCCCCCNC(C)C(O)c1ccc(SC(C)C)cc1 (stereo not shown)
Response: 100

Query: Give Antispasmodic activity CE 100, BaCl2 (BaCl2) of the following molecule: CCCCCCCCNC(CC)C(O)c1ccc(SCC)cc1 (stereo not shown)
Response: 100

Query: Give Antispasmodic activity CE 100, BaCl2 (BaCl2) of the following molecule: CCCCNC(CC)C(O)c1ccc(SC(C)C)cc1 (stereo not shown)
Response: 1000

Query: Give Antispasmodic activity CE 100, BaCl2 (BaCl2) of the following molecule: CCCCCCCCNC(CC)C(O)c1ccc(SC(C)C)cc1 (stereo not shown)
Response: 100

Query: Give Antispasmodic activity CE 100, BaCl2 (BaCl2) of the following molecule: CCCCCCCCNC(CC)C(O)c1ccc(SC)cc1 (stereo not shown)
Response: 500

Query: Give Antispasmodic activity CE 100, BaCl2 (BaCl2) of the following molecule: CC(C)CSc1ccc(C(O)C(C)NC(C)C)cc1 (stereo not shown)
Response: 500

Query: Give Antispasmodic activity CE 100, BaCl2 (BaCl2) of the following molecule: CCCCCCCCNC(C)C(O)c1ccc(SCC)cc1 (stereo not shown)
Response: 100

Query: Give Antispasmodic activity CE 100, BaCl2 (BaCl2) of the following molecule: CCC(C)NC(C)C(O)c1ccc(SC2CCCCC2)cc1 (stereo not shown)
Response: 200

Query: Give Antispasmodic activity CE 100, BaCl2 (BaCl2) of the following molecule: CCC(NC(C)C)C(O)c1ccc(SC2CCCCC2)cc1 (stereo not shown)
Response: 200

Query: Give Antispasmodic activity CE 100, BaCl2 (BaCl2) of the following molecule: CCCCNC(C)C(O)c1ccc(SCC)cc1 (stereo not shown)
Response: 1000

Query: Give Antispasmodic activity CE 100, BaCl2 (BaCl2) of the following molecule: CCCCCCCCNC(C)C(O)c1ccc(SC2CCCCC2)cc1 (stereo not shown)
Response: 1000
